src = patent US10544143B2

system name: human TLR7 (Homo sapiens (Human), UniProt Q9NYK1)
Sequence (Q9NYK1 27-1049): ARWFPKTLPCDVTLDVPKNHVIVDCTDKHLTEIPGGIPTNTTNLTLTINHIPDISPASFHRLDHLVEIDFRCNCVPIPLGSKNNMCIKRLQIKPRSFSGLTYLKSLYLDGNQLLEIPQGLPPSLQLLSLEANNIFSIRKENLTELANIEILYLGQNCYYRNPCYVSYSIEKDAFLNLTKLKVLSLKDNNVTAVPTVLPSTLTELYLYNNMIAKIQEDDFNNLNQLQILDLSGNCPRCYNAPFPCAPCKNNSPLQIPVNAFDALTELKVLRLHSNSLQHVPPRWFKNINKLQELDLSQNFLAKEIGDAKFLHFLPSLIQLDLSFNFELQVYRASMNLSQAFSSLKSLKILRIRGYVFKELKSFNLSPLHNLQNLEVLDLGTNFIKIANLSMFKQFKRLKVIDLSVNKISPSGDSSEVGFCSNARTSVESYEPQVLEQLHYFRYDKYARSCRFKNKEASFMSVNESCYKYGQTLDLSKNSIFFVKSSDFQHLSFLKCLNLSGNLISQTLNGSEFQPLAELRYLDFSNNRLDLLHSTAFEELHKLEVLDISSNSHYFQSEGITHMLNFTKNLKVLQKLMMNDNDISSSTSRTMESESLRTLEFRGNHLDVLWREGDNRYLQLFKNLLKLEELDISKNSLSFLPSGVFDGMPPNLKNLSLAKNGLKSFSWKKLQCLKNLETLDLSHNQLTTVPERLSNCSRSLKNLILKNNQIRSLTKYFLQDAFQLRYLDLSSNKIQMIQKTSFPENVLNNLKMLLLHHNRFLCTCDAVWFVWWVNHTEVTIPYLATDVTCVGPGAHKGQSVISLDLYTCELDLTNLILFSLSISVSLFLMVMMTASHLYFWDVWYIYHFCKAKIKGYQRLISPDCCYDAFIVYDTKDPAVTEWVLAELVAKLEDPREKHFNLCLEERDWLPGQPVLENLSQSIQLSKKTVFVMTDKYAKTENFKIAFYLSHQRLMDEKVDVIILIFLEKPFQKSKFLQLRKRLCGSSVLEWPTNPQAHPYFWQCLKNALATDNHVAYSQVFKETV
method notes: TLR7 inhibition reporter assay (HEK-Blue SEAP)
Format: cell-based
test settings: HEK-Blue human TLR7 cells, gardiquimod 7.5 μM
# Lookup of reported IC50 keyed by entry

{"compound": "Cc1c(-c2[nH]c3ccc(N4C[C@H](C)N(C(=O)CN(C)C(C)(C)C)C[C@H]4C)nc3c2C(C)C)cn2ncnc2c1C [Example 939]", "IC50 (nM)": 1.5}
{"compound": "COc1cc(-c2[nH]c3ccc(C4CCC(N5CC6(CCO6)C5)CC4)nc3c2C(C)C)cn2ncnc12 (stereo not shown) [Example 1074]", "IC50 (nM)": 0.59}
{"compound": "CCN(CC)CC(=O)N1CCN(c2ccc3[nH]c(-c4cn5ncnc5c(C)c4C)c(C(C)C)c3n2)[C@@H](C)C1 [Example 902]", "IC50 (nM)": 1.1}
{"compound": "Cc1c(-c2[nH]c3ccc(N4CCN(C(=O)CN5CCC6(CCOC6)C5)CC4)nc3c2C(C)C)cn2ncnc2c1C (stereo not shown) [Example 947]", "IC50 (nM)": 1.9}
